- run-description: growth suppression of yeast trafficking mutant, preliminary HTS, modulators of trafficking downstream of Golgi apparatus project, 1536-format plate, OD 615 nm (AID 637)
- condition-summary: yeast transport mutant growth, absorbance 615 nm, 18 h; stronger effect = higher value
property: inhibition (%)
Field: numeric (%). Do not append units.

>>> numeric_result("COc1ccccc1N(CC(=O)NCc1ccccn1)S(C)(=O)=O")
-1.17

Report measured inhibition; entry is "CCCCn1c2c(c3ccccc31)CCc1nonc1-2"
-3.67

Identify measured inhibition associated with "Cc1ccccc1-n1c(Cn2c(=O)sc3ccccc32)nnc1SCC(N)=O"
-1.97

Give me measured inhibition, please, for this compound: COc1cccc(C2C(C(=O)c3ccc(C)o3)=C(O)C(=O)N2CCCN(C)C)c1 (stereo not drawn)
7.14

Output measured inhibition for this item: "CN(C)C(=O)N1CCN(C(=O)c2ccco2)CC1"
-3.83

Provide inhibition value for the following compound: Cc1noc(/C=C/N(C)C)c1S(=O)(=O)N1CCCC(C(=O)N2CCCCC2)C1 (stereo not drawn)
-7.21

Report inhibition, nothing else, for this compound: "Nc1cc(N)cc(-c2nc3ccccc3o2)c1"
3.17

Please look at this compound and report its inhibition: "CC(=O)N(C(C)=O)c1ncc2c([nH]c3ccccc32)c1C#N"
-7.26

Note down inhibition recorded for "CCOC(=O)c1ccc(N=c2sc(C(=O)OC)cc(=O)n2Cc2ccco2)cc1"
-1.33

Specify reported inhibition for the compound shown: NC(=O)C1CCN(C(=O)c2cc3n(n2)C(C(F)(F)F)CC(c2ccco2)N3)CC1 (stereo not drawn)
-4.67

Please report the measured inhibition for CC(C)c1ccc(C(O)c2cnc(C(C)C)n2C)cc1 (stereo not drawn)
2.5

In one line, give reported inhibition of the entry "Cc1c(C#N)c2ncnc(-c3ccccc3)c2n1-c1ccccc1" .
-4.92

Quickly give me recorded inhibition for "O=C(NCCCN1CCOCC1)c1ccc(CS(=O)(=O)c2c(Cl)cccc2Cl)o1"
-0.5

* * *

- run-description: viability of HCT116 without oncogenic beta-catenin – human colon tumor cells, pilot screen (AID 823);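 note: 0% = wells killed by 20 µM Hyamine and 100% = untreated DMSO cell wells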
- condition-summary: HCT116 beta-catenin knockout viability, CellTiter-Glo, 60 h; at 10 µM; stronger effect = lower value
Inconclusive results are not listed.
Quick reference for viability among some molecules
Write down the numeric answer in % and omit the unit.

# count of solved cases: 4
>>> numeric_result("Cc1nc(CCNC(=O)COc2ccccc2)cs1")
103
>>> numeric_result("CCOc1ccc2[nH]c(C)cc(=O)c2c1")
96.7
>>> numeric_result("Cn1cc(Cl)c(C(=O)N(Cc2ccccc2)c2ccccn2)n1")
93.3
>>> numeric_result("O=C(NCc1ccco1)c1cc(S(=O)(=O)N2CCOCC2)ccc1Cl")
86.2

For the molecule "Cc1ccc(S(=O)(=O)N2CCC(C(=O)N3CCN(Cc4ccccc4)CC3)CC2)cc1" , give its measured viability value.
90.5

State its viability for this molecule: O=C(COC(=O)C1CC(=O)N(C2CCCCC2)C1)c1ccc(F)cc1 (centres undefined)
108

Provide measured viability value, entry: CCn1cc(C(=O)NCC2CCCO2)c2cc(OC)c(OC)cc2c1=O (centres undefined)
95.4

Return the recorded viability value; entry: "Cn1c(C(=O)N2CCN(c3ccc(Cl)cc3)CC2)cc2c(=O)n(C)c3ccccc3c21"
93

Please list viability recorded for the molecule Cc1ccnc2c(N3C(=O)C4C5C=CC(C5)C4(C)C3=O)cccc12 (centres undefined)
93.3

Find the measured viability of "COc1ccc(N2CCN(C(=O)c3ccc4nc(N5CCCCC5)sc4c3)CC2)cc1" and report it.
101
